Below is a list of entries, each paired with its recorded MFI value.
Target: T1, human TMEM106B (human, UniProt Q9NUM4 2-274)
T1 construct: full-length, transiently expressed on HEK293 cells, or natively expressed on HeLa, U251 and A549 cells (the cell is named under assay); also the source of the Pepscan peptides; also called huTMEM106B; huTMEM
Assay: FACS HEK+huTMEM 1.0 ug/ml;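 note: binding of purified mouse IgG antibodies to HEK293 cells transiently expressing human TMEM106B, read by flow cytometry as median fluorescence intensity of live, propidium iodide-negative cells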
Only the number, expressed in MFI, is required.

TM-11 (antibody, V domains shown) VH: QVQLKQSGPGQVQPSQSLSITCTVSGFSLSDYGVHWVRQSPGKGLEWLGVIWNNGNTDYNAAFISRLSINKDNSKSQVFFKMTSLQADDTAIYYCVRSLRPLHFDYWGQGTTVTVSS VL: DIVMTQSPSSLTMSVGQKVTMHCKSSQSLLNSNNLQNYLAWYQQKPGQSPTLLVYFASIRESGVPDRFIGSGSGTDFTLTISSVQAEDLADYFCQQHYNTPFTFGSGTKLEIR: 54600
TM-19 (antibody, V domains shown) VH: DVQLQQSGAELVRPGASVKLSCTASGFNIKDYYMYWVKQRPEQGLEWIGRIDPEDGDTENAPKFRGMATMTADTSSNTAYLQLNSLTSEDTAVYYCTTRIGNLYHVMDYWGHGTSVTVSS VL: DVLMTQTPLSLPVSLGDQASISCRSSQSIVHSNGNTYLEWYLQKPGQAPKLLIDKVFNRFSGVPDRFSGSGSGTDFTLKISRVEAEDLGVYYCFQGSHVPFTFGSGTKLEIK: 66800

Task: Return reported MFI; argument: TM-42 (antibody, V domains shown) VH: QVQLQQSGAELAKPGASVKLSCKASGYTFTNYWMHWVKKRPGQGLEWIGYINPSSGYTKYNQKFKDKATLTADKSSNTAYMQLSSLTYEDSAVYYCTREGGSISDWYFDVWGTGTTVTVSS VL: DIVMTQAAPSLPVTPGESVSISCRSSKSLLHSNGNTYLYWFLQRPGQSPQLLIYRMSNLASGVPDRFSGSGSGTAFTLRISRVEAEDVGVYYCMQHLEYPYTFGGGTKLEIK
Output: 58100
